- run description: Volume of distribution in CD1 mouse at 5 mg/kg, iv
- Assay type: ADME, organism-based
- Design: dose 5 mg/kg, route intravenous
- measurement parameters: in vivo

>  <test smiles>
CC(C)C[C@H](NC(=O)CCN(C)C)c1cc(Cl)ccc1N1CCN(C(=O)[C@H](C)Cc2ccc(Cl)cc2)CC1

>  <Vd>
11 L/kg

$$$$
>  <test smiles>
CC(C)C[C@@H](NC(=O)CN)c1cccnc1N1CCN(C(=O)[C@H](C)Cc2ccc(Cl)cc2Cl)CC1

>  <Vd>
16.8 L/kg

$$$$

====

- run description: Tmax in dog at 10 mg/kg, po
- Assay type: ADME, organism-based, Canis lupus familiaris
- Parameters: dose 10 mg/kg, route oral
- measurement parameters: in vivo

>  <test smiles>
CC(C)C[C@H](NC(=O)CCN(C)C)c1cc(Cl)ccc1N1CCN(C(=O)[C@H](C)Cc2ccc(Cl)cc2)CC1

>  <units symbol>
h

>  <Tmax>
1

$$$$

====

# key: entry, value: Vd
- run description: Volume of distribution in Sprague-Dawley rat at 5 mg/kg, iv and 10 mg/kg, po
- Assay type: ADME, organism-based
- measurement parameters: in vivo
property measured: Vd (L/kg)

>  <test smiles>
Cc1ccc(N2CCN(C(=O)[C@@H](Cc3ccc(Cl)cc3Cl)N3CCCC3=O)CC2)c([C@H](CC(C)C)NC(=O)CCN(C)C)c1

>  <reported measurement>
8.8

$$$$
>  <test smiles>
CC(C)C[C@H](NC(=O)CCN(C)C)c1cc(Cl)ccc1N1CCN(C(=O)[C@H](C)Cc2ccc(Cl)cc2)CC1

>  <reported measurement>
2.5

$$$$
>  <test smiles>
Cc1ccc(N2CCN(C(=O)[C@H](C)Cc3ccc(Cl)cc3)CC2)c([C@H](CC(C)C)NC(=O)CCN(C)C)c1

>  <reported measurement>
4.1

$$$$

====

- run description: Ratio of drug level in brain to plasma in Sprague-Dawley rat at 10 mg/kg, po after 4 hrs
- Type: ADME, organism-based
- Set-up: dose 10 mg/kg, route oral
- measurement parameters: brain and plasma, read-out: BPR
Recorded Kp at 4 h, one value per entry.

>  <test smiles>
Cc1ccc(N2CCN(C(=O)[C@H](C)Cc3ccc(Cl)cc3)CC2)c([C@H](CC(C)C)NC(=O)CCN(C)C)c1

>  <Kp at 4 h>
0.3

$$$$
>  <test smiles>
Cc1ccc(N2CCN(C(=O)[C@@H](Cc3ccc(Cl)cc3Cl)N3CCCC3=O)CC2)c([C@H](CC(C)C)NC(=O)CCN(C)C)c1

>  <Kp at 4 h>
0.3

$$$$
>  <test smiles>
Cc1ccc([C@@H](CC(C)C)NC(=O)CCN(C)C)c(N2CCN(C(=O)[C@H](C)Cc3ccc(Cl)cc3Cl)CC2)n1

>  <Kp at 4 h>
0.2

$$$$
>  <test smiles>
CC(C)C[C@H](NC(=O)CCN(C)C)c1cc(Cl)ccc1N1CCN(C(=O)[C@H](C)Cc2ccc(Cl)cc2)CC1

>  <Kp at 4 h>
0.3

$$$$

====

- study target: Growth hormone secretagogue receptor type 1 (Homo sapiens, UniProt Q92847)
- Sequence (Q92847 whole entry): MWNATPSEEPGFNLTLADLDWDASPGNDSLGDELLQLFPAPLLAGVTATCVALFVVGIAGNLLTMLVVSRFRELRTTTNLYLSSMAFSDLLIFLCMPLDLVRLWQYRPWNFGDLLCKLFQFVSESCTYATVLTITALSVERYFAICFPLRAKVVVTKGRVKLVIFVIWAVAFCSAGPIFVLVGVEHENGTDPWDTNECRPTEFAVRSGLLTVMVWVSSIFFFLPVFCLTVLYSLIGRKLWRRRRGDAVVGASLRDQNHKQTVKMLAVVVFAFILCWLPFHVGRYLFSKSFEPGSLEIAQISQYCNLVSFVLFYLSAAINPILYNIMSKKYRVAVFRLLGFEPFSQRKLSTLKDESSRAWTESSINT
- run description: Binding affinity to GHSR
pKi: −log10 of the molar value.

>  <test smiles>
CC(C)C[C@H](NC(=O)CCN(C)C)c1cc(Cl)ccc1N1CCN(C(=O)[C@H](C)Cc2ccc(Cl)cc2)CC1

>  <study target>
Growth hormone secretagogue receptor type 1 (Homo sapiens, UniProt Q92847)

>  <pKi>
6.34

$$$$
